tested on: K4 kissing-loop RNA reporter; experiment: apparent KD of K4 kissing-loop reporter; higher = weaker reporter binding; conditions: Eterna round: R107; input ligand: tryptophan 2.4 mM;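 note: bound reporter read as fluorescence of individual clusters on recovered sequencing chips by microscopy, with normalized cluster intensities fitted with a binding model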
Field: apparent KD of K4 kissing-loop reporter. Provide a value for each of the sequences that follow.
Numbers only, in nM.

Solved entries:
AGCUAGUACGCAGGAUAUUGAACAUCAUUUAGUGAGAUCGAGUGAUGUUCGAUCACGACUUCAGUUCGAGAAGGGCGUACUAGCA [#02 K4 FMN B Same State] :: 861
GGGCGUAUUCACCGAGUGAUGUUCGGAAGGAAGGAUAUUCAAGAUUGAAGAAGGUCCGGCCCAUCGGCCAUUAAACUUGAAAGGU [theeternabot_sameState_KL_FMN_A_48] :: 117

As a next step, examine the sequence that follows.
Quick note, apparent KD of K4 kissing-loop reporter for UCGGCAAAGUCGGCCGCCACUCCGGGCCCUAUAAAUGGGCGCAGUGAUGUUGCGGCUAGGCCUCUGAGGACCGGGACUUUGUAAA [Atordied] landed at 219

All figures here come from the supplement of paper PMC9170038.
